tested on: Vero E6 infected with SARS-CoV-2; test: inhibition of SARS-CoV-2 cytopathic effect; higher = more antiviral protection, active = above 15; conditions: 1 nM; 48 h
# Lookup of reported inhibition of SARS-CoV-2 cytopathic effect keyed by entry
State just the number; it will be interpreted in %.

# annotated cases, reported inhibition of SARS-CoV-2 cytopathic effect shown
{"columns": ["COMPOUND", "READOUT_NUMBER"],
 "data": [
  ["OCCN1CCN(CCCN2c3ccccc3Sc3ccc(C(F)(F)F)cc32)CC1", -8.05],
  ["CC[N+](C)(CC)CCC[n+]1c(-c2ccccc2)c2cc(N)ccc2c2ccc(N)cc21 [propidium-iodide]", -1.36],
  ["COc1ccc2c(c1OC)C(=O)O[C@@H]2[C@H]1c2c(cc3c(c2OC)OCO3)CCN1C", -3],
  ["CC(C)[C@H](N)C(=O)OCC(CO)OCn1cnc2c(=O)nc(N)[nH]c21 (mixture of isomers)", 6.98],
  ["Nc1ccccc1NC(=O)c1ccc(CNc2nccc(-c3cccnc3)n2)cc1", 0.57],
  ["CNC(=O)c1c(I)c(C(=O)NCC(=O)Nc2c(I)c(C(=O)O)c(I)c(C(=O)NCCO)c2I)c(I)c(N(C)C(C)=O)c1I", 1.6],
  ["CC(CN1c2ccccc2Sc2ccccc21)N(C)C (stereo not drawn)", -0.13]
]}

Q: Look up Vero E6 infected with SARS-CoV-2 data: inhibition of SARS-CoV-2 cytopathic effect of CC(=O)Nc1cccc(O)c1 , then report it.
A: 1.03

----------
test system: Vero E6 infected with SARS-CoV-2; assay: inhibition of SARS-CoV-2 cytopathic effect; higher = more antiviral protection, active = above 15; details: 1 nM; 48 h
MEASUREMENT_TYPE: inhibition of SARS-CoV-2 cytopathic effect

Worked cases, answers included:
{"columns": ["SAMPLE_SMILES", "RESULT"],
 "data": [
  ["CO[C@@H]1COCC[C@@H]1N[C@@H]1CC[C@@](C(=O)N2CCc3ncc(C(F)(F)F)cc3C2)(C(C)C)C1", "0.39% (inactive)"],
  ["c1cnc(N2CCN(Cc3ccc4c(c3)OCO4)CC2)nc1", "-0.1% (inactive)"],
  ["CCCC[C@H](NC(=O)[C@@H]1[C@@H]2[C@H](CN1C(=O)[C@@H](NC(=O)NC1(CS(=O)(=O)C(C)(C)C)CCCCC1)C(C)(C)C)C2(C)C)C(=O)C(=O)NC1CC1", "0.96% (inactive)"]
]}

// switching to the query compound
Q: Supply recorded inhibition of SARS-CoV-2 cytopathic effect for COc1cc2c(cc1OC)CN(CCc1ccc(NC(=O)c3cccc4c(=O)c5cccc(OC)c5[nH]c34)cc1)CC2 here.
A: 14.2% (inactive)

----------
Entries and their inhibition of SARS-CoV-2 cytopathic effect
tested on: Vero E6 infected with SARS-CoV-2; test: inhibition of SARS-CoV-2 cytopathic effect; higher = more antiviral protection, active = above 15; conditions: 1 nM; 48 h
Please give a number only; it is taken to be in %.

Worked cases, inhibition of SARS-CoV-2 cytopathic effect given:
{"columns": ["MOLECULE", "UNIT_ABBREV", "READOUT_NUMBER"],
 "data": [
  ["CN[C@@H](C)[C@H](O)c1ccccc1", "%", -1.32],
  ["c1ccc2c(-c3cnn4cc(-c5ccc(N6CCNCC6)cc5)cnc34)ccnc2c1", "%", 1.9],
  ["C[C@@H]1C[C@H]2[C@@H]3C[C@H](F)C4=CC(=O)C=C[C@]4(C)[C@@]3(Cl)[C@@H](O)C[C@]2(C)[C@H]1C(=O)COC(=O)C(C)(C)C [clocortolone-pivalate]", "%", 0.49],
  ["CC(=O)N1CCC[C@H]1C(=O)N[C@@H](Cc1cnc[nH]1)C(=O)N[C@@H](CO)C(=O)N[C@@H](CS)C(=O)N[C@@H](CC(N)=O)C(N)=O", "%", 1.06],
  ["CCCc1ccc(C(=O)O)cc1", "%", -0.54]
]}

Q: Using known records, supply inhibition of SARS-CoV-2 cytopathic effect for CC(C(=O)O)c1cccc(Oc2ccccc2)c1 (stereo not drawn)
A: -0.67

Q: Name the recorded inhibition of SARS-CoV-2 cytopathic effect of the molecule listed here: O=C1[C@@H]2[C@H]3CC[C@H](C3)[C@@H]2C(=O)N1C[C@@H]1CCCC[C@H]1CN1CCN(c2nsc3ccccc23)CC1
A: -0.28

Q: Please give the documented inhibition of SARS-CoV-2 cytopathic effect of FC(F)(F)c1cccc(-c2noc(-c3cc(-c4ccccc4)c(C(F)(F)F)s3)n2)c1
A: 1.19
